Below, each of the molecules is paired with its reported Ki value.
Biological target: Peptide deformylase (Escherichia coli) (UniProt Q9JN24)
Sequence (Q9JN24 as listed by the source): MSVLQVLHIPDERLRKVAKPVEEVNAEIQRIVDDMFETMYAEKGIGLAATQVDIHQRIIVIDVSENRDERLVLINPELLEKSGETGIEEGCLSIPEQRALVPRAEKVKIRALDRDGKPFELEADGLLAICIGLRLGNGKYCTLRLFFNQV
Assay: Slow-binding inhibition of cobalt-substituted Escherichia coli PDF
The figure you give is taken to be in nM; do not add the unit.

Below, 2 molecules whose answers are already recorded.
| Record Smiles | Ki [nM] |
| --- | --- |
| CC(C)(C)[C@@H]1NC(=O)[C@@H](CN(O)C=O)CCCCCCCCCNC1=O | 0.33 |
| CC(C)(C)[C@@H]1NC(=O)[C@@H](CC(=O)NO)CCCCCCCCCNC1=O | 4.4 |

// below: Ki requested for another molecule
Fill in the blank: the reported Ki of O=C(C[C@H]1CCCCCCCCCNC(=O)[C@@H]2CCCN2C1=O)NO is ____.
1400
